- tgt: 3-hydroxyacyl-CoA dehydrogenase type-2 (Homo sapiens) (UniProt Q99714)
- protocol.details: qHTS Assay for Inhibitors of HSD17B4, hydroxysteroid (17-beta) dehydrogenase 4;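 further: the protocol describes HADH2 (HSD17B10) and not the HSD17B4 of the title; nearly all actives have a fitted effect of over 70% in size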
- condition.notes: recombinant HSD17B10, NADH fluorescence kinetic; series mostly up to 57.1 µM
Out of some 75,000 compounds screened, about 5,700 (7.6%) were called active. Roughly 7% stayed inconclusive and do not appear here. The call rests on the fitted dose curve; in most records, active means well fitted inhibition curve with a large enough effect; inconclusive means small, poorly fitted or top-dose-only effect; inactive means no such curve, though single readings can be large or run the other way. The list comes from a sample in which actives are over-represented; it also holds close analogues and randomly drawn compounds.
Your response should consist of one outcome taken from active, inactive

Would you please look over these solved cases?
COc1ccccc1-n1c(CNC(=O)c2ccccc2)nnc1SCC(=O)Nc1nnc(C)s1 = inactive
CC12CN3CC(C)(CN(C1)C3c1ccc(Cl)cc1Cl)C2=O (stereo unspecified) = inactive
COCCn1c(=O)c(-c2cccs2)nc2cncnc21 = active
Clc1ccc(CSc2nnc([C@@H]3CCCN3)o2)cc1 = inactive
COc1ccc(-n2c(=O)c(C)nc3cnc(N4CCOCC4)nc32)cc1 = inactive

Shift focus to the following entry.
Input line: Recorded call for CN1CCC(CNC(=O)c2ccc(-n3c(=O)c(=O)[nH]c4ccccc43)cc2)CC1 ?
Output line: inactive
